Experiment: CREB reporter modulators without forskolin, primary screen, cell-based, PC12, CRE-LacZ reporter, unstimulated (AID 1145)
Settings: no forskolin, luminescence, 4.5 h, higher = more signal, called active from +8 up or from −8 down
Each item that follows carries a reported z-score.
Reply briefly: the number, and no unit.

Here's what some known entries look like.
**Query** // returns reported z-score for input O=C1C=C[C@@H](O)[C@@H]2[C@@H]3C(=O)N(C4CCCCC4)C(=O)[C@@H]3CC[C@@H]12
**Result** 0.25

**Query** // returns reported z-score for input O=C1[C@H]2[C@H]3[C@H](O)[C@H](O)CC(=NO[C@@H]4O[C@H](CO)[C@@H](O)[C@H](O)[C@H]4O)[C@H]3CC[C@H]2C(=O)N1c1ccc(F)cc1F
**Result** -0.837

**Query** // returns reported z-score for input COc1ccc(OC[C@H]2CN3[C@@H](CC[C@@H](C)[C@@H]3c3ccc(Br)cc3)C(=O)O2)cc1
**Result** 2.62

**Query** // returns reported z-score for input O=C1[C@H]2[C@H]3[C@H](O)[C@H](O)CC(=NOC[C@@H](O)COCc4ccco4)[C@@H]3CC[C@H]2C(=O)N1c1cccc(Oc2ccccc2)c1
**Result** -1.02

**Query** // returns reported z-score for input CC(CCN1CCCCc2nc(C)c(C)cc21)=NO[C@H](C)c1cn([C@@H]2COC[C@H]2O)nn1
**Result** -0.482

**Query** // returns reported z-score for input CC(C)(C)N1C(=O)[C@H]2[C@@H]3C(=CC[C@H]2C1=O)C(=O)[C@H]1O[C@H]1[C@H]3O
**Result** -0.748

**Query** // returns reported z-score for input COC(=O)[C@@H]1CC[C@H](C)[C@@H](c2ccc(Br)cc2)N1C[C@@H](O)CN=[N+]=[N-]
**Result** 0.105

**Query** // returns reported z-score for input CCOC(=O)[C@H](Cc1ccccc1)NC(=O)CCC1CC(OC(=O)NCCc2ccc(F)cc2)CC2(CCCC(COC(=O)NCc3cccc(C(F)(F)F)c3)O2)O1 (stereo partly specified)
**Result** -0.162

**Query** // returns reported z-score for input CCOC(=O)CCN1C(=O)[C@H]2[C@H]3[C@H](O)[C@H](O)CC(=NNC(=O)OCc4ccc(OC)cc4)[C@H]3CC[C@H]2C1=O
**Result** 0.523

**Query** // returns reported z-score for input CCc1cc2c(nc1CC)CCN(CCC(C)=NOCC[C@@H]1C=C[C@H](OC(C)=O)[C@@H](COC(C)=O)O1)C2
**Result** 3.88

Let us examine a further case.
**Query** // returns reported z-score for input COCC#Cc1ccc([C@@H]2N[C@H](C(=O)O)CC[C@H]2C)cc1
**Result** -0.0755

====

Experiment: basal RPMI8226 viability, no added stimulus, profiling panel, cell-based, calcein-AM fluorescence, 48 h, PK04 Diversity Set (AID 1166);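 further: cells grown under basal conditions without added stimulus; test concentration not given here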
Conditions: RPMI8226 myeloma viability, higher = more signal
Label 1 (yes) when z-score is strictly below -0.6; otherwise label 0 (no).

**Query** Quick check: z-score of COc1ccc(O[C@H]2C=C[C@@H](c3ccccc3)O[C@@H]2CON=C2c3cc(OC)ccc3O[C@H](c3cccc(OC)c3)[C@H]2O)cc1 under -0.6?
**Result** 1 (yes)

Further cases:
**Query** Quick check: z-score of COC(=O)[C@H](CCSC)NC(=O)CC=C[C@@H](C)CO under -0.6?
**Result** 0 (no)

**Query** Quick check: z-score of CC(C)[C@@H](OCc1ccccc1)[C@H](C)CON=C1[C@H]2CCn3c(=O)n(-c4ccccc4)c(=O)n3[C@H]2[C@H](O)[C@@H]2O[C@H]12 under -0.6?
**Result** 1 (yes)

**Query** Quick check: z-score of CC[C@@H](c1ccccc1)n1c(=O)n2n(c1=O)[C@H]1[C@H](O)[C@@H]3O[C@@H]3C(=NOCc3ccccc3)[C@H]1CC2 under -0.6?
**Result** 1 (yes)

**Query** Quick check: z-score of CC(=O)OC[C@H]1O[C@@H](ON=C2[C@H]3CCn4c(=O)n(-c5ccccc5)c(=O)n4[C@H]3[C@H](O)[C@@H]3O[C@H]23)[C@H](OC(C)=O)[C@@H](OC(C)=O)[C@@H]1OC(C)=O under -0.6?
**Result** 0 (no)

**Query** Quick check: z-score of COc1ccc(O[C@H]2C=C[C@@H](c3ccccc3)O[C@@H]2CON=C(C)CCN2CCCc3nc(C)c(C)cc32)cc1 under -0.6?
**Result** 1 (yes)

**Query** Quick check: z-score of CC(C)=NOC(C)CN1CCCCc2nc(C)c(C)cc21 (configuration not stated) under -0.6?
**Result** 1 (yes)

This collection of values is drawn from PubChem BioAssay.
